Reference source for all entries: paper PMC10412636

TARGET_SYSTEM: human serum albumin (HSA) (Homo sapiens, UniProt P02768)
Sequence (P02768 25-609): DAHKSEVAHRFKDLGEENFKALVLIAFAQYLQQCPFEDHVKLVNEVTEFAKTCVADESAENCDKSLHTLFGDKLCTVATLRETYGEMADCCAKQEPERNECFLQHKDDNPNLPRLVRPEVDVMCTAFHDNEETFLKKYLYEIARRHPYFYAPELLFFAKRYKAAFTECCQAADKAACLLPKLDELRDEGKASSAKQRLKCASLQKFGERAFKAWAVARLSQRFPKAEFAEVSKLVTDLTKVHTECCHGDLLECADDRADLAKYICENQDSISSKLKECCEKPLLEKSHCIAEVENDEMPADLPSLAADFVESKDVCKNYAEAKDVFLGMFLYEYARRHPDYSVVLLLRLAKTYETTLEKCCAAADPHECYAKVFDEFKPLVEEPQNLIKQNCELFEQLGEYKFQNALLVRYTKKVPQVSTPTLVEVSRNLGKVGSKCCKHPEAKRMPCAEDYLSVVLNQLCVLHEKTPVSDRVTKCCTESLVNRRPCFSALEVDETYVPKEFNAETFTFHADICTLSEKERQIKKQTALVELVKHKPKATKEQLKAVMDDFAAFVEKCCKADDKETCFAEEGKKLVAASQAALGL
RUN_DESCRIPTION: Quenching of natural fluorescence of human serum albumin
Assay type: binding
MEASUREMENT_CONTEXT: HSA […] 10^–5 M, 37 °C
PROPERTY: Stern Volmer constant KSV

| COMPOUND | Stern Volmer constant KSV |
| --- | --- |
| COc1cc(-c2[o+]c3cc(O)cc(O)c3cc2O)cc(O)c1O | 25.99 ± 1.77 × 10^3 M^−1 |
| Oc1cc(O)c2cc(O)c(-c3cc(O)c(O)c(O)c3)[o+]c2c1 | 22.46 ± 1.00 × 10^3 M^−1 |
| OCC1OC(Oc2cc3c(O)cc(O)cc3[o+]c2-c2cc(O)c(O)c(O)c2)C(O)C(O)C1O (centres unmarked) [Dp 3-glc, Delphinidin 3-O-glucoside] | 20.09 ± 2.57 × 10^3 M^−1 |
| COc1cc(-c2[o+]c3cc(O)cc(O)c3cc2OC2OC(CO)C(O)C(O)C2O)cc(O)c1O (centres unmarked) [Pt 3-glc, Petunidin 3-O-glucoside] | 5.50 ± 0.94 × 10^3 M^−1 |

Turning now to a further record.
Ask: Provide Stern Volmer constant KSV value for the following compound: COc1cc(-c2[o+]c3cc(O)cc(O)c3cc2OC2OC(CO)C(O)C(O)C2O)ccc1O (centres unmarked) [Pn 3-glc, Peonidin 3-O-glucoside]
Result: 11.93 ± 1.61 × 10^3 M^−1

----------
RUN_DESCRIPTION: DPH probe fluorescence anisotropy in MM liposomes
MEASUREMENT_CONTEXT: MM, 20 µM; negative = increase in anisotropy
PROPERTY: Changes in DPH anisotropy relative to the control (%)
Kindly provide the numeric value in % only, without the unit symbol.

Recorded results for 3 compounds are shown here.
| COMPOUND | REPORTED_MEASUREMENT |
| --- | --- |
| COc1cc(-c2[o+]c3cc(O)cc(O)c3cc2OC2OC(CO)C(O)C(O)C2O)ccc1O (centres unmarked) [Pn 3-glc, Peonidin 3-O-glucoside] | -3.12 |
| COc1cc(-c2[o+]c3cc(O)cc(O)c3cc2OC2OC(CO)C(O)C(O)C2O)cc(O)c1O (centres unmarked) [Pt 3-glc, Petunidin 3-O-glucoside] | -7.55 |
| OCC1OC(Oc2cc3c(O)cc(O)cc3[o+]c2-c2cc(O)c(O)c(O)c2)C(O)C(O)C1O (centres unmarked) [Dp 3-glc, Delphinidin 3-O-glucoside] | -7.80 |

Ask: Determine from records and report Changes in DPH anisotropy relative to the control for COc1cc(-c2[o+]c3cc(O)cc(O)c3cc2O)cc(O)c1O
Result: -17.59

Ask: Provide measured Changes in DPH anisotropy relative to the control value, entry: Oc1cc(O)c2cc(O)c(-c3cc(O)c(O)c(O)c3)[o+]c2c1
Result: -16.33

----------
RUN_DESCRIPTION: DPH probe fluorescence anisotropy in MM liposomes
MEASUREMENT_CONTEXT: MM, 1 µM; negative = increase in anisotropy
PROPERTY: Changes in DPH anisotropy relative to the control

See these solved cases before continuing.
| COMPOUND | REPORTED_MEASUREMENT |
| --- | --- |
| COc1cc(-c2[o+]c3cc(O)cc(O)c3cc2OC2OC(CO)C(O)C(O)C2O)cc(O)c1O (centres unmarked) [Pt 3-glc, Petunidin 3-O-glucoside] | -5.67±0.28% |
| COc1cc(-c2[o+]c3cc(O)cc(O)c3cc2OC2OC(CO)C(O)C(O)C2O)ccc1O (centres unmarked) [Pn 3-glc, Peonidin 3-O-glucoside] | -7.68±0.11% |
| Oc1cc(O)c2cc(O)c(-c3cc(O)c(O)c(O)c3)[o+]c2c1 | -8.87±0.24% |
| OCC1OC(Oc2cc3c(O)cc(O)cc3[o+]c2-c2cc(O)c(O)c(O)c2)C(O)C(O)C1O (centres unmarked) [Dp 3-glc, Delphinidin 3-O-glucoside] | -10.78±0.24% |

// next item, Changes in DPH anisotropy relative to the control requested
Ask: Supply measured Changes in DPH anisotropy relative to the control of COc1cc(-c2[o+]c3cc(O)cc(O)c3cc2O)cc(O)c1O in your reply.
Result: -13.00±0.31%
